- Tested on: P388 leukemia ip, CD2F1 mice, survival T/C
- EXPERIMENT DESCRIPTION: NCI In Vivo Anticancer Drug Screen. Data for tumor model P388 Leukemia (intraperitoneal) in CD2F1 (CDF1) mice
- EXPERIMENTAL SETUP: endpoint: median survival time; dose: 50.0 mg/kg/injection; schedule: Q01DX009 (ip); vehicle: saline; higher = longer survival
Inconclusive results and toxic doses are left out.
T/C by entry:
PROPERTY: T/C

>>> df
                                   compound                           subject_of_test   observed_result
0  CCOC(=O)C1=C(C)N(Cc2ccccc2)C2(O)C1=CC(=O)C(Cl)=C2Cl (centres undefined)  P388 leukemia ip, CD2F1 mice, survival T/C   99 % of control
1                        O=C(O)c1cc(O)ccc1O  P388 leukemia ip, CD2F1 mice, survival T/C   90 % of control
2   N#CC(=N)C(C#N)=Nc1c(O)[nH]c2ccc(Br)cc12  P388 leukemia ip, CD2F1 mice, survival T/C  100 % of control
3                                 CN1CCC1=O  P388 leukemia ip, CD2F1 mice, survival T/C  105 % of control
